Where these numbers come from: patent US20210324028A1

Target: T1, human IL-2Rβ (human, UniProt P14784 27-240, limits assumed)
T1 construct: also called hIL-2Rβ; IL-2 receptor beta
T1 sequence (looked up): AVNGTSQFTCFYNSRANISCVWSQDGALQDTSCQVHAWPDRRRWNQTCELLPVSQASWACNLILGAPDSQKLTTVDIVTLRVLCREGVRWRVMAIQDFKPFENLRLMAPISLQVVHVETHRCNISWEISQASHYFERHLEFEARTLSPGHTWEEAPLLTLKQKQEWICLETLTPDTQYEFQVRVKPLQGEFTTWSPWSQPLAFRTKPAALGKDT
Assay: SPR, steady state
test-readout: Kd (nM)

hIL-15 V49R/Q108S (ligand) NWVNVISDLKKIEDLIQSMHIDATLYTESDVHPSCKVTAMKCFLLELQRISLESGDASIHDTVENLIILANNSLSSNGNVTESGCKECEELEEKNIKEFLQSFVHIVSMFINTGGGGSGHHHHHHHHGGGLNDIFEAQKIEWHE = 290

I: hIL-15 V49R/N4H (ligand) NWVHVISDLKKIEDLIQSMHIDATLYTESDVHPSCKVTAMKCFLLELQRISLESGDASIHDTVENLIILANNSLSSNGNVTESGCKECEELEEKNIKEFLQSFVHIVQMFINTGGGGSGHHHHHHHHGGGLNDIFEAQKIEWHE
II: hIL-15 V49R/D30R (ligand) NWVNVISDLKKIEDLIQSMHIDATLYTESRVHPSCKVTAMKCFLLELQRISLESGDASIHDTVENLIILANNSLSSNGNVTESGCKECEELEEKNIKEFLQSFVHIVQMFINTGGGGSGHHHHHHHHGGGLNDIFEAQKIEWHE
Challenge: Lower value for measured Kd? Options: I , II Mark your answer with the label of the selected entry.
Response given: I
(I: 96.4 nM, II: 290 nM)
